Target: UniProt:P10481
Sequence (P10481 whole entry): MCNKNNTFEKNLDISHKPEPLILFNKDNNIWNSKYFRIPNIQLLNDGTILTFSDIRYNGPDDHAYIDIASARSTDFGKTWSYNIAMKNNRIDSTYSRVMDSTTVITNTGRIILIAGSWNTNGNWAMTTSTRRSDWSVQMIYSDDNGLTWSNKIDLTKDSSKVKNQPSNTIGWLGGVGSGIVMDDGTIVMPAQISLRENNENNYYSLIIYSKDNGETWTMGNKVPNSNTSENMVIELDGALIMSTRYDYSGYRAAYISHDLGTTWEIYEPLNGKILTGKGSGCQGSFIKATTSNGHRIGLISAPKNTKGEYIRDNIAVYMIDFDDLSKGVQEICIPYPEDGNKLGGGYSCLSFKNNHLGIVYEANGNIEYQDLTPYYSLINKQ
Assay: Inhibition of Clostridium perfringenes neuraminidase activity using 4-methylumbelliferyl-1-alpha-D-N-acetylneuramic acid sodium salt hydrate as substrate by fluorescence based assay
Details: read-out: pIC50 (converted)
Classification by IC50 | ranges: lower range (below 20 nM), middle range (20 nM to below 200 nM), upper range (200 nM or more)

smiles_structure=CCCCN(C)[C@@H]1C=C(C(=O)O)C[C@H](N)[C@H]1NC(C)=O target_of_assay=UniProt:P10481 label_value="middle range"
smiles_structure=C=CC[C@H](CC)O[C@@H]1C=C(C(=O)O)C[C@H](N)[C@H]1NC(C)=O target_of_assay=UniProt:P10481 label_value="lower range"
smiles_structure=CC(=O)N[C@H]1[C@H](O)C=C(C(=O)O)C[C@@H]1N=C(N)N target_of_assay=UniProt:P10481 label_value="middle range"
smiles_structure=CCCCN(CC)[C@@H]1C=C(C(=O)O)C[C@H](N)[C@H]1NC(C)=O target_of_assay=UniProt:P10481 label_value="middle range"
smiles_structure=CC(=O)N[C@@H]1[C@@H](N)CC(C(=O)O)=C[C@H]1OC1CCCC1 target_of_assay=UniProt:P10481 label_value="middle range"
smiles_structure=CC(=O)N[C@@H]1[C@@H](N)CC(C(=O)O)=C[C@H]1OCCC(F)(F)F target_of_assay=UniProt:P10481 label_value="upper range"
smiles_structure=CCC(CC)O[C@@H]1C=C(C(=O)O)C[C@H](NC(=N)N)[C@H]1NC(C)=O target_of_assay=UniProt:P10481 label_value="lower range"
smiles_structure=CCC(CC)N[C@@H]1C=C(C(=O)O)C[C@H](N)[C@H]1NC(C)=O target_of_assay=UniProt:P10481 label_value="lower range"
smiles_structure=CCCN(CCC)[C@@H]1C=C(C(=O)O)C[C@H](N)[C@H]1NC(C)=O target_of_assay=UniProt:P10481 label_value="lower range"
smiles_structure=CCCN(CC)[C@@H]1C=C(C(=O)O)C[C@H](N)[C@H]1NC(C)=O target_of_assay=UniProt:P10481 label_value="middle range"
smiles_structure=CC[C@H](C)O[C@@H]1C=C(C(=O)O)C[C@H](N)[C@H]1NC(C)=O target_of_assay=UniProt:P10481 label_value="lower range"
smiles_structure=CC(=O)N[C@@H]1[C@@H](N)CC(C(=O)O)=C[C@H]1NC(=O)C(C)C target_of_assay=UniProt:P10481 label_value="upper range"
smiles_structure=CCC(=O)N[C@@H]1C=C(C(=O)O)C[C@H](N)[C@H]1NC(C)=O target_of_assay=UniProt:P10481 label_value="upper range"
smiles_structure=CCCO[C@@H]1C=C(C(=O)O)C[C@H](N=C(N)N)[C@H]1NC(C)=O target_of_assay=UniProt:P10481 label_value="lower range"
smiles_structure=CC(=O)N[C@@H]1[C@@H](N)CC(C(=O)O)=C[C@H]1OC(C)C target_of_assay=UniProt:P10481 label_value="middle range"
smiles_structure=CC(=O)N[C@H]1[C@H](N(C)CCc2ccccc2)C=C(C(=O)O)C[C@@H]1N target_of_assay=UniProt:P10481 label_value="middle range"
